- experimental.system: T1, human 5T4 antigen (human, UniProt Q13641 32-355, limits assumed)
- T1 sequence: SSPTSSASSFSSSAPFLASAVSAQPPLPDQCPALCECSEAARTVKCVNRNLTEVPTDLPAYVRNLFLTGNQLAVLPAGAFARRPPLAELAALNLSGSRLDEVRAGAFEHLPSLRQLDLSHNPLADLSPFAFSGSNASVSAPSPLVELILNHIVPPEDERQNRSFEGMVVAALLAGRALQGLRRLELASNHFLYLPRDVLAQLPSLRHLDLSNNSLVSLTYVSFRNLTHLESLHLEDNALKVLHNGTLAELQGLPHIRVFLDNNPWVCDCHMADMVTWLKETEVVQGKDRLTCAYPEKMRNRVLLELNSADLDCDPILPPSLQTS
- assay.overview: ELISA; inhibition of biotinylated chimeric A1 antibody binding to human 5T4
Items are presented alongside their recorded IC50.
Reply with just the number (in nM).

# count of solved cases: 2
binder	observable	measure.unit	value.observed
huA1 VH v2.0 + huA1 VL v2.4 (antibody, V domains shown) VH: EVQLVESGGGLVQPGGSLRLSCAASGYTFTNFGMNWVRQAPGKGLEWVAWINTNTGEPRYAEEFKGRFTISRDNAKNSLYLQMNSLRAEDTAVYYCARDWDGAYFFDYWGQGTLVTVSS VL: DIQMTQSPSSLSASVGDRVTITCKASQSVSNDVAWYQQKPGKAPKLLIYFATNRYTGVPSRFSGSGYGTDFTLTISSLQPEDFATYYCQQDYSSPWTFGQGTKVEIK	IC50	nM	16
huA1 VH v2.0 + huA1 VL v1.1 (antibody, V domains shown, also called humanized A1 VH version 2.0 + humanized A1 VL version 1.1) VH: EVQLVESGGGLVQPGGSLRLSCAASGYTFTNFGMNWVRQAPGKGLEWVAWINTNTGEPRYAEEFKGRFTISRDNAKNSLYLQMNSLRAEDTAVYYCARDWDGAYFFDYWGQGTLVTVSS VL: DIVMTQSPDSLAVSLGERATINCKASQSVSNDVAWYQQKPGQPPKLLIYFATNRYTGVPDRFSGSGYGTDFTLTISSLQAEDVAVYYCQQDYSSPWTFGQGTKVEIK	IC50	nM	28

Please look at the following binder next.
For record huA1 VH v2.0 + huA1 VL v3.1 (antibody, V domains shown) VH: EVQLVESGGGLVQPGGSLRLSCAASGYTFTNFGMNWVRQAPGKGLEWVAWINTNTGEPRYAEEFKGRFTISRDNAKNSLYLQMNSLRAEDTAVYYCARDWDGAYFFDYWGQGTLVTVSS VL: EIVMTQSPATLSLSPGERATLSCKASQSVSNDVAWYQQKPGQAPRLLIYFATNRYTGIPARFSGSGYGTDFTLTISSLQPEDFAVYYCQQDYSSPWTFGQGTKVEIK the listed IC50 is 27
